The values you see were collected from ChEMBL document CHEMBL1201862.

// values below are reported IC50
# System: DNA dC->dU-editing enzyme APOBEC-3G (Homo sapiens, UniProt Q9HC16)
# Sequence (Q9HC16 whole entry): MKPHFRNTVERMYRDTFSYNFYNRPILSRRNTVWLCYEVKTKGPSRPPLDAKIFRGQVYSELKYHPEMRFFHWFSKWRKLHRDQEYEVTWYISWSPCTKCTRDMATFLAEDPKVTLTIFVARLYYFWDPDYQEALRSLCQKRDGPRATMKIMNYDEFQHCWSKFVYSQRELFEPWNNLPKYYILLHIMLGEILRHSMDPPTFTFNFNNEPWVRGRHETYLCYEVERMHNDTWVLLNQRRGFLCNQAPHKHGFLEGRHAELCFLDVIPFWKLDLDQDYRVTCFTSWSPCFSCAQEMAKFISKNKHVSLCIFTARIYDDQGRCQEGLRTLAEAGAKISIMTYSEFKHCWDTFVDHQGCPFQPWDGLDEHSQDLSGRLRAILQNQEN
# Test description: Dose Response confirmation of small molecule APOBEC3G DNA Deaminase Inhibitors via a fluorescence-based single-stranded DNA deaminase assay. [Related pubchem assays (depositor defined):AID493012, AID493028]
# Type: functional
Active and inactive are the calls of the source. No stated cut-off is given here; in the data, actives have a measured IC50 and inactives only a lower limit.
Measurement type: IC50

>>> df
                                   molecule  measurement_type  recorded_measurement
0  CCN(CC)C(=O)CSc1nc2c(sc(=S)n2-c2ccccc2)c(=O)n1-c1ccc(OC)cc1OC              IC50      51.9 µM (active)
1                Sc1nnc(-c2cccs2)n1C1CCCCC1              IC50      4.59 µM (active)
2   Cc1cc(-c2nnc(S)n2/N=C/c2ccc(C)s2)[nH]n1              IC50      2.28 µM (active)
3  CC(C)(O)C1Cc2cc(/C=C/C(=O)O)c(O)cc2O1 (centres undefined)              IC50      38.2 µM (active)
